System: Colon cancer organoid
Assay: Identification of compartment-specific drug sensitivities in O20 CRC organoid-stroma F20 CAF co-cultures. Organoid is transduced with Lucferase2-P2A-EGFP lentivirus, fibroblast with Renilla-dsRed lentivirus. Dual-Glo Luciferase assay is used to report viability data.
Assay type: functional, Homo sapiens
Design: dose or concentration left out as unconfirmed
Settings: Transduced with Lucferase2-P2A-EGFP lentivirus
PROPERTY LABEL: Cell Viability (%)
# unit: % | format: bare number

Input: Look up Cell Viability of Cc1nc(-c2cn3c(n2)-c2ccc(-c4cnn(C(C)(C)C(N)=O)c4)cc2OCC3)n(C(C)C)n1 [TASELISIB] and report it.
Output: 15.8824

Input: Look up Cell Viability of "CN1C[C@H](Nc2cnn(C)c(=O)c2Br)C[C@H](c2ccccc2)C1" and report it.
Output: 160.124

Input: Look up Cell Viability of Cn1c(-c2csc(C3CCN(CC4=NC5N=CC=CC5N4)CC3)n2)nc2ccccc21 (centres undefined) [BAY-070] and report it.
Output: 42.0794

Input: Look up Cell Viability of CC(=O)C1=C(C)N(c2cccc(C(F)(F)F)c2)C(=O)N[C@H]1c1ccc(C#N)nc1 [BAY-677] and report it.
Output: 134.265

====

Test system: Colon cancer organoid
Experiment: Identification of compartment-specific drug sensitivities in O20 CRC organoid-stroma F20 CAF co-cultures. Organoid is transduced with Lucferase2-P2A-EGFP lentivirus, fibroblast with Renilla-dsRed lentivirus. Dual-Glo Luciferase assay is used to report viability data.
Assay type: functional, Homo sapiens
Set-up: dose or concentration left out as unconfirmed
Settings: Transduced with Renilla-dsRed lentivirus
Give measured Cell Viability for each item. Keep answers brief.
# unit: % | format: bare number

Input: Look up Cell Viability of CCOc1ccn(-c2ccc(F)cc2)c(=O)c1C(=O)Nc1ccc(Oc2ccnc(N)c2Cl)c(F)c1 [BMS-777607] and report it.
Output: 72.8578

Input: Look up Cell Viability of "CC1(C)C(N)=Nc2cc(OCCCN3Cc4ccc(OCCc5cn(CC(=O)N6CCC(CCN7CCCC7)CC6)nn5)cc4C3)c(OCC3CC3)cc21" and report it.
Output: 161.052

Input: Look up Cell Viability of "c1ccc2oc(-c3csc(C4CCN(Cc5nc6ncccc6[nH]5)CC4)n3)cc2c1" and report it.
Output: 105.216

Input: Look up Cell Viability of "Cc1cc(C)cc([C@@H]2c3cc(C)ccc3NC(=O)CN2C(=O)c2ccc(Br)s2)c1" and report it.
Output: 541.943

====

Test system: Colon cancer organoid
Test: Identification of compartment-specific drug sensitivities in O20 CRC organoid-stroma F20 CAF co-cultures. Organoid is transduced with Lucferase2-P2A-EGFP lentivirus, fibroblast with Renilla-dsRed lentivirus. Dual-Glo Luciferase assay is used to report viability data.
Type: functional, Homo sapiens
Design: dose or concentration left out as unconfirmed
Conditions: Transduced with Lucferase2-P2A-EGFP lentivirus
Non-standard residues stand in square brackets, D forms with d. Residues, ends and D or L forms follow the SMILES beside them. Arg(Me) = CNC(=N)NCCC[C@H](N)C(=O)O; d4Pal = N[C@H](Cc1ccncc1)C(=O)O; azaGly = NNC(=O)O
PROPERTY LABEL: Cell Viability (%)
# unit: % | format: bare number

Input: Look up Cell Viability of "Cc1cnc(-c2cc(Cl)ccc2F)cc1-n1c(=O)n(CC(N)=O)c2cnccc21" and report it.
Output: 64.1266

Input: Look up Cell Viability of "C=CC(=O)Nc1cccc(C(=O)Nc2ccc(Nc3cc(-c4[nH]c(SC)nc4C)ccn3)cc2)c1" and report it.
Output: 175.79

Input: Look up Cell Viability of "CCCCN(CCCC)C(=O)CN1C[C@@H](c2cc(OC)c3c(c2)OCO3)[C@H](C(=O)O)[C@H]1CC(C)(C)CCC" and report it.
Output: 123.099

Input: Look up Cell Viability of "CCc1cc2cc(NS(=O)(=O)c3ccc(C#N)cc3)ccc2n(CC)c1=O" and report it.
Output: 196.577

Input: Look up Cell Viability of "Cn1cc(-c2ccc3occ(-c4ccccc4-c4ccccc4)c3n2)cn1" and report it.
Output: 88.7548

Input: Look up Cell Viability of "C[C@H](NC(=O)c1cnc2n1[C@](C)(Cc1ccc(C#N)cc1)C(=O)N2c1cc(Cl)c(F)c(Cl)c1)C(=O)NC1(c2ccccn2)CC1" and report it.
Output: 121.807

Input: Look up Cell Viability of "CNC(=O)c1ccccc1Nc1cc(Nc2ccc(N3CCOCC3)cc2OC)ncc1C(F)(F)F" and report it.
Output: 13.9942

Input: Look up Cell Viability of "O=C(O)c1ccc2c(c1)nc(Nc1cccc(Cl)c1)c1ccncc12" and report it.
Output: 158.324

Input: Look up Cell Viability of "O=C(NCc1ccccc1)c1ccc(S(=O)(=O)NCc2ccccc2)cc1" and report it.
Output: 89.1581

Input: Look up Cell Viability of "CCN(CC)S(=O)(=O)Nc1cccc(-c2ccc3c(NC(=O)C4CC4)n[nH]c3c2)c1" and report it.
Output: 76.1767

Input: Look up Cell Viability of CNC(=N)NCCC[C@H](NC(=O)[C@H](CC(C)C)NC(=O)NNC(=O)[C@H](Cc1ccccc1)NC(=O)[C@H](CO)NC(=O)[C@H](CC(N)=O)NC(=O)[C@@H](Cc1ccncc1)NC(=O)[C@H](N)Cc1ccc(O)cc1)C(=O)N[C@@H](Cc1ccccc1)C(N)=O [KISS1-305] (H-[dY][d4Pal]NSF[azaGly]L[Arg(Me)]F-NH2) and report it.
Output: 118.72

Input: Look up Cell Viability of "Cl.Cl.c1ccc([C@@H]2C[C@H]2NC2CCNCC2)cc1" and report it.
Output: 42.8532

Input: Look up Cell Viability of "CCNC(=O)c1cc2c(N3CCOC[C@@H]3C)ccnc2n1C" and report it.
Output: 107.341

Input: Look up Cell Viability of "Cc1cc2c(-c3ccco3)cnc(N[C@@H]3CCN(C)C[C@H]3C(=O)NC3CCCCC3)c2[nH]c1=O" and report it.
Output: 34.1492

Input: Look up Cell Viability of "CC(=O)Nc1c(F)cc(C(=O)N[C@H]2CC[C@H](O)CC2)cc1O[C@@H](C)c1ccccc1" and report it.
Output: 118.485

Input: Look up Cell Viability of "NS(=O)(=O)c1cc(NC(=O)C2(c3ccccc3Cl)CC2)ccc1Oc1cccc(Cl)c1" and report it.
Output: 177.814
